B1: tRNA (parent)
chain: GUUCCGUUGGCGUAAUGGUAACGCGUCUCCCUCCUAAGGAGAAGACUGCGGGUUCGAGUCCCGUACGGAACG

# Variants of: B1
# Protocol summary: yeast fitness relative to wild type (ratio to wild type); higher = fitter; tRNA-Arg(CCU), competitive growth, 37 C, YPD
This sample holds only a part of the variants without activity.
Parameter measured: yeast fitness

Solved cases (5 shown):
[[record]]
mut = "C30G G44A G48A G58A"
parameter_measured = "yeast fitness"
endpoint_result = "≤ 0.5"

[[record]]
mut = "U7A A15U G67A"
parameter_measured = "yeast fitness"
endpoint_result = "≤ 0.5"

[[record]]
mut = "A15C A21G C22U U47C"
parameter_measured = "yeast fitness"
endpoint_result = "≤ 0.5"

[[record]]
mut = "U2A C5U A42G C46G G56C C61A"
parameter_measured = "yeast fitness"
endpoint_result = "≤ 0.5"

[[record]]
mut = "C5U C61G G67U"
parameter_measured = "yeast fitness"
endpoint_result = "≤ 0.5"


Query: GET /values?readout=yeast fitness&item= U26A C34G C49A U53C A69U
Reply: ≤ 0.5

Query: Quick one: yeast fitness for U7A A20G C31U A57G A70C ?
Reply: ≤ 0.5

Data origin, for the record: the RNAGym collection of RNA variant scans (doi:10.1126/science.aae0568)
